Test system: AMPK
test-details: AMPK activation assay (western blot phospho-AMPK Thr172) in Hep G2
Format: cell-based, human
experimental-parameters: Hep G2 cells, 100 microM, 30 min treatment
# key: entry, value: AMPK activation (% to control) Hep G2

Exercise: Query the reported AMPK activation (% to control) Hep G2 for AMPK; item: CCCCCCNc1ncnc2nc[nH]c12
Solution: 280 % to control

Exercise: Query for AMPK: what AMPK activation (% to control) Hep G2 does the record show for Nc1nc(Cl)nc2nc[nH]c12 ?
Solution: 220 % to control

Exercise: Provide the documented AMPK activation (% to control) Hep G2 with AMPK as the system for Oc1nc(S)nc2nc[nH]c12 [Example 2-mercapto-6-hydroxypurine, 2-mercapto-6-hydroxypurine]
Solution: 209 % to control

Exercise: Request - read-out AMPK activation (% to control) Hep G2 | tested on AMPK | molecule Oc1nc(NCc2ccccc2)c2[nH]cnc2n1 [Example 2-hydroxy-6-benzylaminopurine, 2-hydroxy-6-benzylaminopurine]
Solution: 261 % to control

Exercise: Short answer please: AMPK activation (% to control) Hep G2, AMPK, entry Nc1nc2nc[nH]c2c(=O)[nH]1
Solution: 199 % to control

Exercise: Please tell me: AMPK activation (% to control) Hep G2 of O=c1cc[nH]c(=O)[nH]1 , system AMPK?
Solution: 237 % to control

Exercise: Requested read-out AMPK activation (% to control) Hep G2, target or system AMPK, entry O=c1[nH]cc(F)c(=O)[nH]1
Solution: 237 % to control

----------
Tested on: AMPK
test-details: AMPK activation assay (western blot phospho-AMPK Thr172) in 3T3-L1
Assay type: cell-based, mouse
experimental-parameters: 3T3-L1 cells, 1 microM, 30 min treatment
attribute-measured: AMPK activation (% to control) 3T3-L1

Check out these entries, answers already filled in.
1) Oc1nc(Cl)nc2nc[nH]c12 [Example 2-chloro-6-hydroxypurine, 2-chloro-6-hydroxypurine] | 108 % to control
2) CNc1nc(O)nc2nc[nH]c12 [Example 2-hydroxy-6-methylaminopurine, 2-hydroxy-6-methylaminopurine] | 113 % to control
3) Nc1nc(I)nc2nc[nH]c12 | 116 % to control
4) O=c1cn[nH]c(=O)[nH]1 | 109 % to control
5) Cc1c[nH]c(=O)nc1N | 115 % to control

Exercise: If you can, please state the reported AMPK activation (% to control) 3T3-L1 value of O=c1[nH]cc(F)c(=O)[nH]1 .
Solution: 108 % to control

Exercise: For Oc1nc(S)c2[nH]cnc2n1 [Example 2-hydroxy-6-mercaptopurine, 2-hydroxy-6-mercaptopurine] , what is its reported AMPK activation (% to control) 3T3-L1?
Solution: 118 % to control

Exercise: Field request: AMPK activation (% to control) 3T3-L1 | item: CC(C)CCNc1nc(N)nc2nc[nH]c12
Solution: 110 % to control

----------
System: AMPK
test-details: AMPK activation assay (western blot phospho-AMPK Thr172) in 3T3-L1
Assay type: cell-based, mouse
experimental-parameters: 3T3-L1 cells, 10 microM, 30 min treatment
attribute-measured: AMPK activation (% to control) 3T3-L1

Known results for compounds:
1. CCCCCCNc1ncnc2nc[nH]c12 | 111 % to control
2. Sc1ncnc2nc[nH]c12 | 128 % to control
3. Cc1ccc(CNc2ncnc3nc[nH]c23)cc1 | 163 % to control

Next, consider the following compound.
Exercise: Form field: reported AMPK activation (% to control) 3T3-L1 of COc1cc(CNc2nc(C)nc3nc[nH]c23)cc(OC)c1OC
Solution: 141 % to control

----------
System: AMPK
test-details: AMPK activation assay (western blot phospho-AMPK Thr172) in Hep G2
Format: cell-based, human
experimental-parameters: Hep G2 cells, 100 microM, 30 min treatment
Form field: AMPK activation (% to control) Hep G2 (one value per entry).

1. Oc1nc(Cl)nc2nc[nH]c12 [Example 2-chloro-6-hydroxypurine, 2-chloro-6-hydroxypurine] | 249 % to control
2. Cc1ccc(CNc2ncnc3nc[nH]c23)cc1 [6-(4-methylbenzylamino)purine] | 245 % to control

The record that follows has no AMPK activation (% to control) Hep G2 shown yet.
Exercise: Item Nc1cc[nH]c(=O)n1 [Cytosine] has what recorded AMPK activation (% to control) Hep G2?
Solution: 281 % to control

----------
Test system: AMPK
test-details: AMPK activation assay (western blot phospho-AMPK Thr172) in C2C12
Assay type: cell-based, mouse
experimental-parameters: C2C12 cells, 200 microM, 30 min treatment
List of AMPK activation (% to control) C2C12 values.

Worked cases, answers included:
1. CCCNc1nc(O)nc2nc[nH]c12 [Example 2-hydroxy-6-propylaminopurine, 2-hydroxy-6-propylaminopurine] | 324 % to control
2. Nc1nc(S)nc2nc[nH]c12 | 289 % to control
3. Oc1ncnc2nc[nH]c12 [6-hydroxypurine] | 341 % to control
4. O=c1cc[nH]c(=O)[nH]1 | 358 % to control
5. Nc1nc(O)nc2nc[nH]c12 [Example 2-hydroxyadenine, 2-hydroxyadenine] | 315 % to control
6. Cc1c[nH]c(=O)[nH]c1=O | 354 % to control
7. Clc1cccc(Nc2ncnc3nc[nH]c23)c1 | 307 % to control
8. Nc1nc(N)c2[nH]cnc2n1 | 381 % to control

Okay, now this molecule:
Exercise: I would be grateful if you could share the reported AMPK activation (% to control) C2C12 for Cc1nc(O)c2[nH]cnc2n1 [Example 2-methyl-6-hydroxypurine, 2-methyl-6-hydroxypurine] .
Solution: 305 % to control

----------
Test system: AMPK
test-details: AMPK activation assay (western blot phospho-AMPK Thr172) in 3T3-L1
Type: cell-based, mouse
experimental-parameters: 3T3-L1 cells, 1 microM, 30 min treatment
attribute-measured: AMPK activation (% to control) 3T3-L1

These solved cases illustrate the format of a correct answer.
1. CNc1ncnc2nc[nH]c12 [Example 6-methylaminopurine, 6-methylaminopurine] | 107 % to control
2. Nc1cc[nH]c(=O)n1 [Cytosine] | 117 % to control
3. CN(C)c1nc(O)c2[nH]cnc2n1 [Example 2-Dimethylamino-6-hydroxypurine, 2-Dimethylamino-6-hydroxypurine] | 106 % to control
4. Sc1nc(S)c2[nH]cnc2n1 [2,6-dimercaptopurine] | 102 % to control

Exercise: Bench note: what AMPK activation (% to control) 3T3-L1 did O=c1[nH]c(=O)n([C@H]2C[C@H](O)[C@@H](CO)O2)cc1F [Floxuridine] show?
Solution: 116 % to control

Exercise: Look up AMPK activation (% to control) 3T3-L1: CNc1nc(N)nc2nc[nH]c12 [Example 2-amino-6-methylaminopurine, 2-amino-6-methylaminopurine]
Solution: 109 % to control

Exercise: Fill blank: measured AMPK activation (% to control) 3T3-L1 of the compound Nc1nc(S)c2[nH]cnc2n1 [Example 2-amino-6-mercaptopurine, 2-amino-6-mercaptopurine] is ____.
Solution: 105 % to control

Exercise: Fill blank: measured AMPK activation (% to control) 3T3-L1 of the compound Sc1ncnc2nc[nH]c12 [Example 6-mercaptopurine, 6-mercaptopurine] is ____.
Solution: 114 % to control

Exercise: Item Nc1nc(N)c2[nH]cnc2n1 [2,6-diaminopurine] has what recorded AMPK activation (% to control) 3T3-L1?
Solution: 108 % to control

----------
Test system: AMPK
test-details: AMPK activation assay (western blot phospho-AMPK Thr172) in Hep G2
Type: cell-based, human
experimental-parameters: Hep G2 cells, 100 microM, 30 min treatment
attribute-measured: AMPK activation (% to control) Hep G2

Exercise: Could you tell me which AMPK activation (% to control) Hep G2 is on file for Nc1nc(NCc2ccccc2)nc2nc[nH]c12 ?
Solution: 235 % to control

Exercise: Which AMPK activation (% to control) Hep G2 reading was recorded for the molecule O=c1[nH]c(=O)n([C@H]2C[C@H](O)[C@@H](CO)O2)cc1F ?
Solution: 206 % to control

Exercise: Using the record for CCCNc1nc(O)nc2nc[nH]c12 [Example 2-hydroxy-6-propylaminopurine, 2-hydroxy-6-propylaminopurine] , report its AMPK activation (% to control) Hep G2.
Solution: 270 % to control

Exercise: Request the reported AMPK activation (% to control) Hep G2 associated with COc1cccc(CNc2nc(N)nc3nc[nH]c23)c1OC
Solution: 229 % to control

Exercise: Suppose we examine the molecule Nc1nc2[nH]cnc2c(=S)[nH]1 ; what AMPK activation (% to control) Hep G2 value has been reported?
Solution: 229 % to control

Exercise: Endpoint output: AMPK activation (% to control) Hep G2 of Nc1nc(N)c2[nH]cnc2n1 . Value?
Solution: 274 % to control

Exercise: Reported AMPK activation (% to control) Hep G2 for O=c1[nH]cnc2nc[nH]c12 : what is it?
Solution: 225 % to control

Exercise: // lookup AMPK activation (% to control) Hep G2 for Oc1nc(S)c2[nH]cnc2n1 [Example 2-hydroxy-6-mercaptopurine, 2-hydroxy-6-mercaptopurine]
Solution: 204 % to control

Exercise: # lookup: AMPK activation (% to control) Hep G2 of Cc1nc(O)c2[nH]cnc2n1 [Example 2-methyl-6-hydroxypurine, 2-methyl-6-hydroxypurine]
Solution: 219 % to control

Exercise: Find the recorded AMPK activation (% to control) Hep G2 belonging to CC(C)CCNc1nc(N)nc2nc[nH]c12 and report it.
Solution: 250 % to control
